# System: KRAS Q61H (Homo sapiens (Human), UniProt P01116+P62937, Q61H)
# Sequence (P01116-2 other isoform, or with tags, fused parts or gaps Q61H): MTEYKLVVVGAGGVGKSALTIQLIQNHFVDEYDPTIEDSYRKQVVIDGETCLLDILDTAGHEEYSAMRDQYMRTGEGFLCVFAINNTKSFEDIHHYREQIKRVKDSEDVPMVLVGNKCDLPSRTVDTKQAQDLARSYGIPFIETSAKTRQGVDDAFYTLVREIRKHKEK
# Sequence (P62937 whole entry): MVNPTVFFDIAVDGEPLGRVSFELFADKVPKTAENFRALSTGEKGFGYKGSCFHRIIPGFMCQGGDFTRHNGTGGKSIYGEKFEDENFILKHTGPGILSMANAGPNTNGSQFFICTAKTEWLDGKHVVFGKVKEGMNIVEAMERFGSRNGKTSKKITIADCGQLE
# Protocol notes: Ras-Raf (BRAF RBD) disruption / FRET / MOA assay, KRAS Q61H
# Format: biochemical
# Particulars: Ras-Raf disruption/FRET/MOA assay; class symbols; read-out: KRAS Q61H FRET data IC50
Observation type: IC50

1. C=CC(=O)N1CC[C@H](C(=O)N(C)[C@H](C(=O)N[C@H]2Cc3cccc(c3)-c3ccc4c(c3)c(c(-c3cccnc3[C@H](C)OC)n4CC(F)(F)F)CC(C)(C)COC(=O)[C@@H]3CCCN(N3)C2=O)C(C)C)C1 (atropisomer, axis not shown) [Example A332] :: 100 to 1000 nM
2. CCn1c(-c2cccnc2[C@H](C)OC)c2c3cc(ccc31)-c1cccc(c1)C[C@H](NC(=O)[C@H](C(C)C)N1CC[C@]3(CCN(C(=O)C#C[C@@H]4COCCN4C)C3)C1=O)C(=O)N1CCC[C@H](N1)C(=O)OCC(C)(C)C2 (atropisomer, axis not shown) [Example A569] :: 1000 to 10000 nM
3. C=C(OC)C(=O)N1CC2(CCN(C(=O)N(C)[C@H](C(=O)N[C@H]3Cc4nc(cs4)-c4ccc5c(c4)c(c(-c4cccnc4[C@H](C)OC)n5CC)CC(C)(C)COC(=O)[C@@H]4CCCN(N4)C3=O)C(C)C)CC2)C1 (atropisomer, axis not shown) [Example A681] :: 10 to 100 nM
4. C=CC(=O)C1CC[C@H](C(=O)N(C)[C@H](C(=O)N[C@H]2Cc3nsc(n3)-c3ccc4c(c3)c(c(-c3cccnc3[C@H](C)OC)n4CC)CC(C)(C)COC(=O)[C@@H]3CCCN(N3)C2=O)C(C)C)C1 (stereo partly shown) [Example A694] :: 100 to 1000 nM
